Tested on: A498
measurement-description: NCI tumour cell line growth inhibition, 48 h
Calls of active or inactive are those of the source. Rule as the data show it: active = GI50 up to about 1.1 µM and inactive = higher.
experimental-endpoint: GI50

Could you report GI50 for every entry in the following list?
1. Cc1ccc(/C=C2\CN(C)CC3=C2OC(N)=C(C#N)C3c2ccc(C)cc2)cc1 (stereo not given)
2. Nc1nc(SC/C=C/c2ccccc2)c2[nH]cnc2n1
3. CCN(CC)CCNc1ccc2nnn3c4ccc(OCCN(CC)CC)cc4c(=O)c1c23
4. Cc1nccn1S(=O)(=O)c1ccc(Br)cc1Br
5. Cn1c(=O)c2nc(SCc3ccccn3)[nH]c2n(C)c1=S

Return:
16 µM (inactive)
> 100 µM (inactive)
> 100 µM (inactive)
35.9 µM (inactive)
23.3 µM (inactive)

Could you report GI50 for every entry in the following list?
1. [O-][n+]1c(CN2CCCCC2)nc2cccc3c2c1-c1ccccc1-3
2. C#C/C=C/CC1OC(C(Br)CC)CC(Br)C2CC1O2 (stereo not given)
3. ClC1=C(Cl)C(Cl)(Cl)SS1
4. CCCCCOc1ccc(/C=N\c2ccc(-c3ccc(/N=C\c4ccc(OCCCCC)cc4)c(OC)c3)cc2OC)cc1
5. CC[C@@]1(O)C[C@H](OC2CC(N(C)C)C(OC3CC(O)C(OC4CC(O)C(O)C(C)O4)C(C)O3)C(C)O2)c2c(cc3c(c2O)C(=O)c2c(O)ccc(O)c2C3=O)[C@H]1C(=O)OC (stereo not given in full)

Return:
18.2 µM (inactive)
> 100 µM (inactive)
> 10 µM (inactive)
> 100 µM (inactive)
0.0146 µM (active)

* * *

Tested on: COLO 205
measurement-description: NCI tumour cell line growth inhibition, 48 h
Active and inactive are the calls of the source. Cut-off read from the data, not from the text of the source: active = GI50 up to about 1.1 µM and inactive = higher.
Could you please pick one outcome from this set? active, inactive

Please review the following examples before continuing.
- compound: "Nc1nc(NCC2(CO)CC(CCc3ccccc3)C2)cc(=O)[nH]1 (stereo not drawn)"
  answer-label: "inactive"
- compound: "Cc1cc(N(CCC#N)CCC#N)ccc1C(/N=N/c1ccc([N+](=O)[O-])cc1)=N\\NC(=O)c1ccccc1"
  answer-label: "inactive"
- compound: "CC(C)(C)C1CCC(=O)/C(=C/CC2CC(=O)N(c3ccccc3)C(=O)C2)C1 (stereo not drawn)"
  answer-label: "inactive"
- compound: "c1ccc2c(c1)NC(C1OC3CCCN3C1C1Nc3ccccc3S1)S2 (stereo not drawn)"
  answer-label: "inactive"
- compound: "COc1cc2c(cc1OC)[C@H]1C(COC(=O)Nc3ccccc3)CN1CC2 (stereo partly drawn)"
  answer-label: "inactive"
- compound: "CNC(=S)c1nnsc1N"
  answer-label: "active"

Enquiry: Just curious, what result did `C#CCOCn1cnc2c(N)ncnc21` get here?
Return: inactive

Enquiry: Just curious, what result did `Cc1cc2oc(=O)[nH]c(=S)c2c(C)c1C` get here?
Return: inactive

Enquiry: Just curious, what result did `C[Si](C)(C)C#CCOC=C1CC1` get here?
Return: inactive

Enquiry: Just curious, what result did `CCOC(=O)C1=C(Nc2ccc(Cl)c(Cl)c2)OC/C1=N\NC(=O)Cc1ccccc1` get here?
Return: inactive

Enquiry: Just curious, what result did `CCOC(=O)CN1C(=O)c2c(NC(=O)C(=O)O)cccc2S1(=O)=O` get here?
Return: inactive

Enquiry: Just curious, what result did CC(=O)OC1CC[C@@]2(C)C(=CC[C@@H]3[C@@H]2CC[C@]2(C)Nc4nn(S(C)(=O)=O)cc4C[C@@H]32)C1 (stereo partly drawn) get here?
Return: inactive

Enquiry: Just curious, what result did COc1ccc(C2C(Cl)C(=O)N2NC(=O)Cc2ccccc2)cc1OC (stereo not drawn) get here?
Return: inactive

* * *

Test system: SK-MEL-2
measurement-description: NCI tumour cell line growth inhibition, 48 h
Activity calls are given as the source filed them. No stated cut-off is given here; in the data, active = GI50 up to about 1.1 µM and inactive = higher.
Give measured GI50 for each item. Keep answers brief.

- molecule: "C=C1C(=O)OC2/C=C(\\C)C3OC3/C=C(/C(=O)OC)C(OC(C)=O)C(OC(=O)C(C)(O)C(C)OC(C)=O)C12 (stereo not given)"
  assay-system: "SK-MEL-2"
  experimental-endpoint: "GI50"
  observed: "4.59 µM (inactive)"

Could you report GI50 for every entry in the following list?
1. COc1c2c(cc3c1OCO3)[C@]13C=C[C@H](OC)C[C@H]1N(C2)CC3O (stereo not given in full)
2. [O-][n+]1c(CN2CCCCC2)nc2cccc3c2c1-c1ccccc1-3
3. CC(C)=CC(Cc1ccccc1)S(=O)(=O)c1nc2ccccc2s1 (stereo not given)
4. C=C(C)C(=O)OC1CC2(C)OC(=CC2=O)C(C)CC2OC(=O)C(=C)C12 (stereo not given)

Return:
> 100 µM (inactive)
23 µM (inactive)
13.1 µM (inactive)
14.3 µM (inactive)

Could you report GI50 for every entry in the following list?
1. Clc1nncc2sc(-c3ccccc3)nc12
2. COc1ccc2c(c1)OC(c1cccnc1)C(c1ccccc1)C2=O (stereo not given)
3. CCOc1cc(/C=C/C=C/c2ccc(N(C)C)cc2)[s+]c2ccccc12
4. Cc1ccc(S(=O)(=O)N2CCCSCCN(S(=O)(=O)c3ccc(C)cc3)CCCSCC2)cc1
5. NC(=O)N/N=C(\Cc1nc2ccc(Cl)cc2nc1O)C(=O)Nc1ccc(Cl)cc1Cl

Return:
16.4 µM (inactive)
> 100 µM (inactive)
20.4 µM (inactive)
> 100 µM (inactive)
> 100 µM (inactive)

* * *

System: NCI-H23
measurement-description: NCI tumour cell line growth inhibition, 48 h
The source made the active and inactive calls. Rule as the data show it: active = GI50 up to about 1.1 µM and inactive = higher.
Could you please pick one outcome from this set? 1.0 for active, 0.0 for inactive

Please review the following examples before continuing.
- compound: "O=C1N2CCc3c([nH]c4ccccc34)C23CC2CCCC12S3 (stereo unspecified)"
  answer-label: 0.0
- compound: "NC(CC(=O)OCc1ccccc1)C(=O)OCc1ccccc1 (stereo unspecified)"
  answer-label: 0.0
- compound: "C=C(C)C(=O)OC1CC2(C)OC(=CC2=O)C(C)CC2OC(=O)C(=C)C12 (stereo unspecified)"
  answer-label: 0.0
- compound: "CNC(=S)c1nnsc1N"
  answer-label: 0.0

Enquiry: Just curious, what result did `O=C(O)c1[nH]c2c([N+](=O)[O-])cc([N+](=O)[O-])cc2c1C(=O)O` get here?
Return: 0.0

Enquiry: Just curious, what result did CC1=C(Cl)C=CP(=O)(OC(C)C)C1 (stereo unspecified) get here?
Return: 0.0

Enquiry: Just curious, what result did `COC(=O)c1c(C(=O)OC)c2ccc(-c3ccc(Cl)cc3)nn2c1C(=O)c1ccc([N+](=O)[O-])cc1` get here?
Return: 0.0

Enquiry: Just curious, what result did CCOC(=O)C1(C(=O)OCC)C=C(c2ccccc2)N(C2OC(COC(C)=O)C(OC(C)=O)C(OC(C)=O)C2OC(C)=O)C1=S (stereo unspecified) get here?
Return: 0.0

Enquiry: Just curious, what result did OCC1OC(NC(=S)NCSCCC(F)(F)C(F)(F)C(F)(F)C(F)(F)C(F)(F)C(F)(F)F)C(O)C(O)C1O (stereo unspecified) get here?
Return: 0.0

Enquiry: Just curious, what result did COC1(OC)C2C=CC1C([C@](C)(N)CO)C2 (stereo partly specified) get here?
Return: 0.0

Enquiry: Just curious, what result did `CC(=O)c1cc2c(s1)C(=O)c1scc(C(C)=O)c1C2=O` get here?
Return: 1.0

* * *

System: SR
measurement-description: NCI tumour cell line growth inhibition, 48 h
Calls of active or inactive are those of the source. No stated cut-off is given here; in the data, active = GI50 up to about 1.1 µM and inactive = higher.
Could you please pick one outcome from this set? active, inactive

Enquiry: Just curious, what result did COc1ccc(C2C3CCc4ccccc4C3=NN2S(=O)(=O)c2ccc(Cl)cc2)cc1 (centres undefined) get here?
Return: inactive

Enquiry: Just curious, what result did `Cc1cn2c(/C=C3/C(=O)Nc4ccccc43)c(C)nc2s1` get here?
Return: active

Enquiry: Just curious, what result did CC(=O)OC1CC[C@@]2(C)C(=CC[C@@H]3[C@@H]2CC[C@]2(C)Nc4nn(S(C)(=O)=O)cc4C[C@@H]32)C1 (some centres undefined) get here?
Return: inactive

Enquiry: Just curious, what result did CC(C)NCC(O)c1cc(OCc2ccccc2)c(OCc2ccccc2)cc1NC(=O)CCC(=O)O (centres undefined) get here?
Return: inactive

Enquiry: Just curious, what result did `CCOC(=O)c1ccc(NC(=O)O/N=C(/Cl)C(C)C)cc1` get here?
Return: inactive

* * *

Give measured GI50 for each item. Keep answers brief.
System: SF-539
measurement-description: NCI tumour cell line growth inhibition, 48 h
The source made the active and inactive calls. Cut-off read from the data, not from the text of the source: active = GI50 up to about 1.1 µM and inactive = higher.

Solved cases below.
- compound: "Cc1ccc(C(=O)N/N=C(\\N=N\\c2cccc(C)c2)c2ccc(N(CCC#N)CCC#N)cc2C)cc1"
  GI50: "64.7 µM (inactive)"
- compound: "CCCCCCCCCCSC(=O)NC"
  GI50: "35.3 µM (inactive)"
- compound: "COC(=O)[C@]12CSC[C@H]1C[C@H](c1ccccc1OC)N2"
  GI50: "> 100 µM (inactive)"

Could you report GI50 for every entry in the following list?
1. CCOP1(=O)CC(C)=C(Cl)C(OC)C1 (stereo not drawn)
2. CC(=O)NC1c2ccccc2C(C)(C)C12CCC1(CC2)OCCO1 (stereo not drawn)
3. c1ccc(-c2ccnc3c2ccc2c(-c4ccccc4)ccnc23)cc1
4. CNS(=O)(=O)NN(C)S(=O)(=O)c1ccc(Cl)cc1
5. Cc1ccc(C2=C(c3ccccc3)C(Br)(c3ccccc3)C(c3ccccc3)=C2c2ccc(C)cc2)cc1

Return:
> 100 µM (inactive)
> 100 µM (inactive)
2.06 µM (inactive)
> 100 µM (inactive)
> 100 µM (inactive)
